All values here come from the supplement of paper PMC9694430.

thermal shift delta Tm values by entry
# Test system: LOC_OS01G13800-cb001
# Protocol description: thermal shift delta Tm vs DMSO control; higher = stronger stabilization (binding);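 also: purified Escherichia coli-expressed rice kinase domain construct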
# Experimental parameters: 12.5 µM; protein concentration 2 µM
Reported metric: thermal shift delta Tm (°C)

>>> reading("Cc1cc([C@@H](C)Nc2ccccc2C(=O)O)c2nc(N3CCOCC3)cc(=O)n2c1")
0.31
>>> reading("CC(C)(C)c1cnc(CSc2cnc(NC(=O)C3CCNCC3)s2)o1")
0.5
>>> reading("CC(=O)Nc1nc(C)c(-c2ccc(Cl)c(S(=O)(=O)NCCO)c2)s1")
0.63
>>> reading("OCCn1cc(-c2cnc3nnn(Cc4ccc5ncccc5c4)c3n2)cn1")
-0.25
>>> reading("Cc1cc(Nc2ncnc3ccc(-c4ccc(CNCCS(C)(=O)=O)o4)cc23)ccc1Oc1ccn2ncnc2c1 [HER2-Inhibitor-1]")
0.55
>>> reading("CCn1nc(C2CCN(C(=O)CCO)CC2)nc1-c1cnc(N)c(-c2nnc(C(C)(C)C)o2)n1")
0.46
>>> reading("O=C(c1ccc(Nc2nccc(-c3cc4ccccc4s3)n2)cc1)N1CCC(N2CCCC2)CC1 [IKK-16 (IKK Inhibitor VII)]")
-0.34
>>> reading("COc1cc2c(Oc3ccc(NC(=O)C4(C(=O)Nc5ccc(F)cc5)CC4)cc3F)ccnc2cc1OCCCN1CCOCC1")
-0.35
>>> reading("Cc1cc2c(F)c(Oc3ncnn4cc(OC[C@@H](C)OC(=O)[C@H](C)N)c(C)c34)ccc2[nH]1")
0.4
>>> reading("CC[C@@H]1C(=O)N(C)c2cnc(Nc3ccc(C(=O)N[C@H]4CC[C@H](N5CCN(CC6CC6)CC5)CC4)cc3OC)nc2N1C(C)C [Volasertib (BI 6727)]")
0.22
>>> reading("COc1ncc(-c2ccc3nccc(-c4ccnnc4)c3c2)cc1NS(=O)(=O)c1ccc(F)cc1F")
0.27
>>> reading("Cn1cc(/C=C2\\C(=O)Nc3cccnc32)c2ccccc21")
-0.51
>>> reading("CN(C)C/C=C/C(=O)Nc1ccc(C(=O)Nc2cccc(Nc3ncc(Cl)c(-c4c[nH]c5ccccc45)n3)c2)cc1")
1.95
>>> reading("COc1ncc(-c2cc(-c3ncc(CN4C[C@@H](C)O[C@@H](C)C4)o3)c3cn[nH]c3c2)cc1NS(C)(=O)=O")
-0.09
>>> reading("C[C@@H]1COCCN1c1cc(=O)n2c(n1)N(Cc1cncc(Cl)c1)[C@H](C(F)(F)F)CC2")
1.15
>>> reading("CC(C)N(CCC(=O)c1ccc2ccccc2c1)Cc1ccccc1")
-1.25
>>> reading("C[C@@H]1COC(Nc2ccc3ncnc(Nc4ccc(OCc5nccs5)c(Cl)c4)c3c2)=N1 [Varlitinib]")
0.39
>>> reading("N#Cc1ccc2ncnc(NCCc3ccccc3)c2c1 [Senexin A]")
0.25

----------
thermal shift delta Tm values by entry
# Test system: LOC_OS01G02750-cb003
# Protocol description: thermal shift delta Tm vs DMSO control; higher = stronger stabilization (binding)
# Experimental parameters: 12.5 µM; protein concentration 2 µM
Structures can show the parent of a compound that is named as a salt.
Reported metric: thermal shift delta Tm (°C)

>>> reading("CCCCNc1ncc2c(-c3ccc(CN4CCN(C)CC4)cc3)cn([C@H]3CC[C@H](O)CC3)c2n1")
6.91
>>> reading("Cc1ccc(Nc2nccc(N(C)c3ccc4c(C)n(C)nc4c3)n2)cc1S(N)(=O)=O")
0.47
>>> reading("OC1CCC(Oc2cccc3cnc(Nc4ccc5nc[nH]c5c4)nc23)CC1 (stereo not given)")
6.21
>>> reading("N#Cc1c(O)c2c(-c3ccc(-c4ccccc4O)cc3)csc2[nH]c1=O")
1.74
>>> reading("CC(C)(O)CNc1ncc(-c2ccnc(Nc3ccnc(Cl)c3)n2)c(CC2CC2)n1")
0.82
>>> reading("C[C@H](NC(=O)c1c(N)nn2cccnc12)c1cc2cccc(C#Cc3cnn(C)c3)c2c(=O)n1-c1ccccc1")
1.49
>>> reading("N#C/C(=C(/N)Sc1ccc(N)cc1)c1ccccc1C(F)(F)F")
-0.14
>>> reading("C[C@@H](Oc1cc(-c2cnn(C3CCNCC3)c2)cnc1N)c1c(Cl)ccc(F)c1Cl")
1.71
>>> reading("COc1ccc(/C=C/C(=O)C2(C(=O)/C=C/c3ccc(OC)c(OC)c3)CCCCC2)cc1OC")
0.5
>>> reading("O=C(O)CCC(=O)Nc1ccc(Br)cn1 [Bikinin]")
0.77
>>> reading("CC(C)(C)c1nc(-c2cccc(NS(=O)(=O)c3c(F)cccc3F)c2F)c(-c2ccnc(N)n2)s1")
0.76
>>> reading("CC(C)=CC[C@@H](O)C1=CC(=O)c2c(O)ccc(O)c2C1=O [Shikonin]")
17.4
>>> reading("C#Cc1cccc(Nc2ncnc3cc4c(cc23)OCCOCCOCCO4)c1 [Icotinib]")
0.8
>>> reading("CN1CCN(c2ccc3nc(-c4c(N)c5c(F)cccc5[nH]c4=O)[nH]c3c2)CC1 [Dovitinib (TKI-258, CHIR-258)]")
2.05
>>> reading("Nc1nc(N)c(N=O)c(OCC2CCCCC2)n1")
0.95
>>> reading("CC(C)c1ccc2oc3nc(N)c(C(=O)O)cc3c(=O)c2c1 [Amlexanox]")
0.05
>>> reading("CCN1/C(=C/C(C)=O)Sc2ccc(OC)cc21")
0.62
>>> reading("O=C(c1cccc(Cl)c1F)N1CCN(Cc2cccc(Nc3nccs3)n2)CC1")
0.86
>>> reading("CN(C)C[C@@H]1CCn2cc(c3ccccc32)C2=C(C(=O)NC2=O)c2cn(c3ccccc23)CCO1")
0.71
>>> reading("COc1cc2c3cc1Oc1c(OC)c(OC)cc4c1[C@@H](Cc1ccc(O)c(c1)Oc1ccc(cc1)C[C@@H]3N(C)CC2)N(C)CC4 [Berbamine (dihydrochloride)]")
0.3

----------
# Test system: LOC_OS05G43570-cb004
# Protocol description: thermal shift delta Tm vs DMSO control; higher = stronger stabilization (binding)
# Experimental parameters: 12.5 µM; protein concentration 2 µM
Reported metric: thermal shift delta Tm (°C)

>>> reading("CN(C)C/C=C/C(=O)Nc1cc2c(Nc3ccc(F)c(Cl)c3)ncnc2cc1O[C@H]1CCOC1 [Afatinib (BIBW2992) Dimaleate]")
0.46
>>> reading("Cc1cc2c(F)c(Oc3ncnn4cc(OC[C@@H](C)OC(=O)[C@H](C)N)c(C)c34)ccc2[nH]1")
0.24
>>> reading("COc1cc2c(cc1OC)[C@@H]1C(=O)c3ccc4c(c3O[C@@H]1CO2)C=CC(C)(C)O4 [Deguelin]")
0.47
>>> reading("Cc1cc(C(=O)NOCCO)c(Nc2ccc(I)cc2F)n(C)c1=O")
0.18

----------
# Test system: LOC_OS05G43570-cb004
# Protocol description: thermal shift delta Tm vs DMSO control; higher = stronger stabilization (binding)
# Experimental parameters: 12.5 µM; protein concentration 2 µM
We use 0.5 °C as the dividing line for thermal shift delta Tm: on or above the line is Met, below is Not met.

>>> class_name("O=C(Nc1cccc(Nc2ncc(Br)c(NCCc3cnc[nH]3)n2)c1)N1CCCC1")
"Met"
>>> class_name("CC(C)(C)c1nc(-c2ccc(NC(=O)Nc3cccc(C(F)(F)F)c3)c3ccccc23)c2c(N)nccn12")
"Met"
>>> class_name("CCc1cccc(CC)c1NC(=O)N1Cc2[nH]nc(NC(=O)c3ccc(N4CCN(C)CC4)cc3)c2C1")
"Not met"
>>> class_name("C=CC(=O)Nc1cccc(C)c1Nc1ncc2cc(-c3c(Cl)c(OC)cc(OC)c3Cl)ccc2n1")
"Not met"
>>> class_name("C[C@@H]1COCCN1c1cc(C2([S@](C)(=N)=O)CC2)nc(-c2cc[nH]c3nccc2-3)n1")
"Not met"
>>> class_name("COc1cc2c(Oc3ccc(NC(=O)C4(C(=O)Nc5ccc(F)cc5)CC4)cc3F)ccnc2cc1OCCCN1CCOCC1")
"Not met"
>>> class_name("O=C(O)c1ccc2c(c1)nc(Nc1cccc(Cl)c1)c1ccncc12")
"Not met"
>>> class_name("COc1cc(C(=O)N2CCC(N3CCN(C)CC3)CC2)ccc1Nc1ncc2c(n1)N(C)c1ccccc1C(=O)N2C")
"Not met"
>>> class_name("COc1ccccc1-c1cc(Nc2cccc(CS(N)(=O)=O)c2)ncn1")
"Not met"
>>> class_name("CNC(=O)c1nn(C)c2c1C(C)(C)Cc1cnc(Nc3ccc(N4CCN(C)CC4)cc3)nc1-2")
"Not met"
>>> class_name("CC(C)NC[C@@H](C(=O)N1CCN(c2ncnc3c2[C@H](C)C[C@H]3O)CC1)c1ccc(Cl)cc1")
"Not met"
>>> class_name("CCS(=O)(=O)N1CCN(c2ccc(Nc3ncc(C(N)=O)c(NC4CC4)n3)cc2)CC1")
"Met"
>>> class_name("Cc1ccc(NC(=O)c2cccc(C(C)(C)C#N)c2)cc1Nc1ccc2ncn(C)c(=O)c2c1")
"Met"
>>> class_name("CS(=O)(=O)CCNCc1ccc(-c2ccc3ncnc(Nc4ccc(OCc5cccc(F)c5)c(Cl)c4)c3c2)o1 [Lapatinib]")
"Met"
>>> class_name("CCN(CC)CCNC(=O)c1c(C)[nH]c(/C=C2\\C(=O)Nc3ccc(F)cc32)c1C [Sunitinib]")
"Met"
>>> class_name("C=CC(=O)Nc1ccc2ncnc(Nc3cccc(Br)c3)c2c1")
"Not met"
>>> class_name("O=C(Nc1c[nH]nc1-c1nc2ccc(CN3CCOCC3)cc2[nH]1)NC1CC1")
"Met"
>>> class_name("O=C1NC(=O)/C(=C/c2ccc3nccc(-c4ccncc4)c3c2)S1")
"Not met"
>>> class_name("CN1CCN(CCOc2cc(OC3CCOCC3)c3c(Nc4c(Cl)ccc5c4OCO5)ncnc3c2)CC1")
"Met"
>>> class_name("O=c1cc(-c2cccc3c2Sc2ccccc2S3)oc(N2CCOCC2)c1")
"Not met"
>>> class_name("CN1CCC(COc2cnc(-c3cccc(Cn4nc(-c5cccc(C#N)c5)ccc4=O)c3)nc2)CC1")
"Not met"
>>> class_name("O=C(NOCCO)c1ccc2cncn2c1Nc1ccc(I)cc1F")
"Not met"
>>> class_name("COc1cc2ncnc(Oc3cccc(NC(=O)Nc4cc(C(C)(C)C(F)(F)F)on4)c3)c2cc1OC")
"Not met"
>>> class_name("Cc1cnc(Nc2ccc(OCCN3CCCC3)cc2)nc1Nc1cccc(S(=O)(=O)NC(C)(C)C)c1")
"Met"
>>> class_name("CCCCNc1ncc(-c2ccc(CN3CCOCC3)cn2)c(NC2CCC(O)CC2)n1 (stereo unspecified)")
"Not met"
>>> class_name("Cc1cc(Nc2nc(N[C@@H](C)c3ncc(F)cn3)ncc2Cl)[nH]n1")
"Met"
>>> class_name("O=C1Nc2ccccc2/C1=C1/Nc2ccccc2C1=O")
"Not met"
>>> class_name("CCCCCCCCCC(=O)CC(O)S(=O)(=O)O (stereo unspecified) [Sodium Houttuyfonate]")
"Met"
>>> class_name("COc1ccc(-c2ccc3c(N4CCOC[C@@H]4C)nc(N4CCOC[C@@H]4C)nc3n2)cc1CO")
"Not met"
>>> class_name("Cc1ccc(C(=O)Nc2ccc(CN3CCN(C)CC3)c(C(F)(F)F)c2)cc1C#Cc1cnc2[nH]ncc2c1 [GZD824 Dimesylate]")
"Met"
>>> class_name("CC#CC(=O)Nc1ccc2ncnc(Nc3cccc(Br)c3)c2c1")
"Met"
>>> class_name("C#Cc1cccc(Nc2ncnc3cc(OCCOC)c(OCCO)cc23)c1")
"Not met"
>>> class_name("Cn1ncc(Cl)c1-c1cc(C(=O)N[C@H](CN)Cc2cccc(F)c2)sc1Cl")
"Met"
>>> class_name("CN(C)C/C=C/C(=O)Nc1ccc(C(=O)Nc2cccc(Nc3ncc(Cl)c(-c4c[nH]c5ccccc45)n3)c2)cc1")
"Met"
>>> class_name("Cc1cc(Nc2cc(N3CCN(C)CC3)nc(/C=C/c3ccccc3)n2)n[nH]1")
"Met"
